Give measured collision cross section (N2) for each item. Keep answers brief.
conditions: [M+Na]+; instrument: DT; single field, calibrated with Agilent tune mix (Agilent)
Give bare numbers, in Å².

Respectfully, I request collision cross section (N2) for each entry included below.
1. Nc1nc(=O)c2ncn([C@H]3C[C@H](O)[C@@H](CO)O3)c2[nH]1
2. O=C(CO)COP(=O)(O)O [Dihydroxyacetone phosphate]
3. Cc1cn([C@H]2C[C@H](O)[C@@H](COP(=O)(O)OP(=O)(O)O)O2)c(=O)[nH]c1=O [Deoxythymidine 5'-diphosphate]

Return:
[171.7, 146.7, 177.6]

Hi there! I need collision cross section (N2) for each item below, if you can.
1. N[C@H]1[C@@H](OP(=O)(O)O)O[C@H](CO)[C@@H](O)[C@@H]1O [Glucosamine 1-phosphate]
2. OC[C@H]1O[C@@H](O[C@H]2[C@H](O)[C@@H](O)[C@H](O)O[C@@H]2CO)[C@H](O)[C@@H](O)[C@H]1O
3. OC[C@H]1O[C@H](O[C@H]2[C@H](O)[C@@H](O)[C@@H](O[C@H]3[C@H](O)[C@@H](O)C(O)O[C@@H]3CO)O[C@@H]2CO)[C@H](O)[C@@H](O)[C@@H]1O (stereo partly drawn)

Return:
1. 158.5
2. 175.1
3. 212.7

----------
For each entry below, report its collision cross section (N2) value.
settings: [M+H]+; instrument: TW; calibrated with polyalanine and drug standards
One number for each entry, in Å².

Known collision cross section (N2) results, listed for orientation:
CN1CC(=O)N2[C@H](c3ccc4c(c3)OCO4)c3[nH]c4ccccc4c3C[C@@H]2C1=O | 188.7
CC(=O)OC1CN2CCC1CC2 (stereo unspecified) | 136.2
CCC(C)C(=O)O[C@@H]1C[C@@]2(C)[C@H](c3ccoc3)OC(=O)CC23OC2(C)OC34[C@H](OC(=O)C(C)C)[C@@]3(O)[C@@H](OC(=O)C5(C)OC5C)[C@@]5(C)C[C@]3(O)[C@@](C)([C@H]5CC(=O)OC)C14O2 (stereo partly specified) | 259.8
C[C@]12C=CC(=O)C=C1CC[C@@H]1[C@@H]2C(=O)C[C@@]2(C)[C@H]1CC[C@]2(O)C(=O)CO | 181.8
CCCCCCCCCCCCCCCC(=O)OC[C@H](O)[C@H]1OC(=O)C(O)=C1O [ASCORBYL PALMITATE] | 204.8
CCOC(=O)c1cncn1C(C)c1ccccc1 (stereo unspecified) [ETOMIDATE] | 155.9

# per-item lookup of collision cross section (N2); items listed below
1. CC[C@@H](C)C(=O)O[C@H]1[C@H](O)[C@H]2[C@@H](CN3C[C@@H](C)CC[C@H]3[C@@]2(C)O)[C@@H]2C[C@]34O[C@]5(O)[C@@H](OC(=O)[C@](C)(O)[C@@H](C)O)CC[C@@]3(C)[C@@H]5[C@@H](OC(C)=O)[C@@H](OC(C)=O)[C@H]4[C@@]21O
2. CC1(C)O[C@@H]2C[C@H]3[C@@H]4CCC5=CC(=O)C=C[C@]5(C)[C@@]4(F)[C@@H](O)C[C@]3(C)[C@]2(C(=O)CO)O1 [TRIAMCINOLONE ACETONIDE]
3. COc1ccc(-c2coc3cc(O)ccc3c2=O)c(OC)c1
4. CCOc1ccc(C(=O)c2ccc(O)c(O)c2O)cc1 [2,3,4-TRIHYDROXY-4'-ETHOXYBENZOPHENONE]
5. Nc1nc(=O)c2ncn(COCCO)c2[nH]1

Return:
[287, 197.1, 164.6, 160.4, 146.5]

----------
details: [M+H]+; instrument: TW; calibrated with polyalanine and drug standards
Please go through the items and note down their collision cross section (N2).
Answers are plain numbers, in Å².

In the examples that follow, each entry is paired with its recorded collision cross section (N2).
O=C(CCCl)NCc1ccccc1 [BECLAMIDE] | 142.3
CC1=C(CCC(=O)O)c2cc3nc(cc4[nH]c(cc5[nH]c(cc1n2)c(C)c5C(C)O)c(C)c4C(C)O)C(C)=C3CCC(=O)O (stereo not given) | 248.4
CC(C)Cc1ccc(C(C)C(=O)O)cc1 (stereo not given) | 144

Could I get collision cross section (N2) for every one of these entries?
1. NC(N)=NC(=O)c1nc(Cl)c(N2CCCCCC2)nc1N [N,N-HEXAMETHYLENEAMILORIDE]
2. CN1CCN(C(c2ccccc2)c2ccccc2)CC1

Return:
1. 174.7
2. 164.8

----------
conditions: [M+H]+; instrument: TW
Recorded endpoint: collision cross section (N2) (Å²)
Numbers only, in Å².

Hey, quick one: what's collision cross section (N2) for each of these?
1. CO/C=C(/C(=O)OC)c1ccccc1COc1cccc(C(F)(F)F)n1 [Picoxystrobin]
2. CCCN1C[C@H](C)[C@@H](O)[C@](C)(O)[C@@H](CC)OC(=O)[C@H](C)[C@@H](O[C@H]2C[C@@](C)(OC)[C@@H](O)[C@H](C)O2)[C@H](C)[C@@H](O[C@@H]2O[C@H](C)C[C@H](N(C)C)[C@H]2O)[C@](C)(O)C[C@H]1C [Gamithromycin]
3. C=C1C[C@@]23CC[C@H]4[C@@](C)(CCC[C@@]4(C)C(=O)O[C@@H]4O[C@H](CO)[C@@H](O)[C@H](O)[C@H]4O[C@@H]4O[C@H](CO)[C@@H](O)[C@H](O)[C@H]4O)[C@@H]2CC[C@]1(O[C@@H]1O[C@H](CO)[C@@H](O)[C@H](O)[C@H]1O[C@@H]1O[C@H](CO)[C@@H](O)[C@H](O)[C@H]1O)C3 [Rebaudioside E]
4. C=C1C[C@@]23CC[C@H]4[C@@](C)(CCC[C@@]4(C)C(=O)O[C@@H]4O[C@H](CO)[C@@H](O)[C@H](O)[C@H]4O)[C@@H]2CC[C@]1(O[C@@H]1O[C@H](CO)[C@@H](O)[C@H](O[C@@H]2O[C@H](CO)[C@@H](O)[C@H](O)[C@H]2O)[C@H]1O[C@@H]1O[C@@H](C)[C@H](O)[C@@H](O)[C@H]1O)C3 [Rebaudioside C]
5. Nc1ccc(S(=O)(=O)Nc2nccs2)cc1 [Sulfathiazole]

Return:
1: 177.5; 2: 280.6; 3: 289.2; 4: 299.49; 5: 148.2

----------
details: [M+H]+; instrument: DT; stepped-field
Exercise: state measured collision cross section (N2) for each of the compounds provided.
Answers are plain numbers, in Å².

Solved cases below.
COc1cc(O)c2c(=O)c(-c3ccc(O)cc3)coc2c1 | 166.26
Nc1ncnc2c1ncn2[C@@H]1O[C@H](COP(=O)(O)O)[C@@H](O)[C@H]1O [Adenosine 5' Monophosphate] | 173.33
c1ccc2cc3c(cc2c1)-c1cccc2cccc-3c12 | 154.36
N[C@@H](CCOC(=O)CCC(=O)O)C(=O)O | 147.46
CC(C)(CO)[C@@H](O)C(=O)NCCC(=O)O | 150.17
COc1cc2c(cc1O)CC[C@@H]1[C@@H]2CC[C@]2(C)C(=O)CC[C@@H]12 | 174.47

Report collision cross section (N2) for each item below.
1. O=c1ccn([C@@H]2O[C@H](COP(=O)(O)O)[C@@H](O)[C@H]2O)c(=O)[nH]1 [Uridine 5'-Monophosphate]
2. NCCCC[C@H](N)C(=O)O
3. O=C1c2ccccc2-c2cccc3cccc1c23
4. CCCCCCCCCCCCCCCCCC(=O)O[C@H](CO)COP(=O)([O-])OCC[N+](C)(C)C

Return:
169.81
131.8
145.71
240.7

Could you tell me collision cross section (N2) for each of these compounds? They are listed below.
1. Oc1cc(O)c2c(c1)O[C@H](c1ccc(O)c(O)c1)[C@@H](O)C2
2. COc1ccc2cc([C@H](C)C(=O)O)ccc2c1

Return:
165.18
154.83

----------
settings: [M+H]+; instrument: TW; calibrated with polyalanine and drug standards
Please go through the items and note down their collision cross section (N2).
Numbers only, in Å².

Nc1ccn([C@@H]2O[C@H](CO)[C@@H](O)[C@@H]2O)c(=O)n1 | 150.5
Oc1c(I)cc(I)c2cccnc12 | 143.7
COC(=O)NC(=S)Nc1ccccc1NC(=S)NC(=O)OC [DIMETHYL 4,4-o-PHENYLENE-BIS (3-THIOPHANATE)] | 173.3
COc1cc(Cc2cnc(N)nc2N)cc(OC)c1OC | 171.2
O=C1OC(c2ccc(O)cc2)(c2ccc(O)cc2)c2ccccc21 | 172.1

For each of the items listed, what is its collision cross section (N2)?
1. CC1(C)OC(=O)C(OCC2CC2)=C1c1ccc(S(C)(=O)=O)cc1
2. C[C@H]1COc2c(N3CCN(C)CC3)c(F)cc3c(=O)c(C(=O)O)cn1c23
3. CC1(C)CC23C(=O)CCC(O)C2(C)CCC13 (stereo not given)
4. Nc1ccccc1C(=O)CC(N)C(=O)O (stereo not given)
5. Cc1ncc(CSSCc2cnc(C)c(O)c2CO)c(CO)c1O
6. Cc1c(O)c(=O)n(-c2ccccc2)n1C [4-HYDROXYANTIPYRINE]
7. CN1CCc2cc3c(cc2[C@H]1[C@@H]1OC(=O)c2c1ccc1c2OCO1)OCO3 [BICUCULLINE (+)]

Return:
1: 181.1; 2: 188.5; 3: 146.1; 4: 146; 5: 173.4; 6: 141.4; 7: 180
